Sourced from the supplement of paper PMC11451515

Each item that follows carries a reported cell viability.
Test system: P12-Ichikawa
Assay: cell viability relative to DMSO control; higher = less cytotoxic
Conditions: RPMI 5 mM glucose + 10% FBS; 48 h; 46.1 µM
Quick reminder: number only, in %, skip the unit.

The examples below pair each entry with its known result.
smiles record | cell viability [%]
COc1cccc2c(NCc3ccccc3)nc(-n3c(N)nc4ccccc43)nc12 | 6.11
COc1ccc(C(=O)CC(=O)c2ccc(C(C)(C)C)cc2)cc1 | 90.7
Cc1cccc(N(C)C(=S)Oc2ccc3ccccc3c2)c1 | 92.4
Nc1nc(Nc2ccc([S+](N)(=O)[O-])cc2)nn1C(=O)c1c(F)cccc1F | 23.1
COC1=CC(=CC=C1)C2=CC=C(NC(=O)/C3=C(/CCC3)C(O)=O)C(=C2)F | 51.7

Alright, here's another compound for you.
Q: Entry Cn1cc(-c2cnn3c(N)c(Br)c([C@@H]4CCCNC4)nc23)cn1 : reported cell viability = ?
A: 3.91

---

Test system: NOMO1
Experiment: cell viability relative to DMSO control; higher = less cytotoxic
Conditions: HPLM + 10% dialyzed FBS; 48 h; 15.4 µM
measurement type: cell viability (%)
Lab book: enter the figure in %, no units written.

Reference set, count: 5
compound | unit annotation | cell viability
CN(C)CC[C@H](CSc1ccccc1)Nc1ccc([S+](=O)([O-])NC(=O)c2ccc(N3CCN(Cc4ccccc4-c4ccc(Cl)cc4)CC3)cc2)cc1[N+](=O)[O-] | % | 50.2
C=C[C@H]1CN2CCC1C[C@@H]2[C@@H](O)c1ccnc2ccccc12 (stereo not given in full) | % | 93.1
CN1CC/C(CC1)=C3\c4ccccc4CC(=O)c2sccc23 | % | 112
CC(Cc1ccc(O)c(O)c1)(NN)C(=O)O (stereo not given) | % | 121
COc1cc(Nc2ncc(F)c(Nc3ccc4c(n3)N(COP(=O)(O)O)C(=O)C(C)(C)O4)n2)cc(OC)c1OC | % | 93.5

Q: Return reported cell viability; argument: O=C(O)CSCC(=O)NC1CCSC1=O (stereo not given)
A: 112

Q: // returns reported cell viability for input COc1ccc(CC2c3cc(OC)c(OC)cc3CC[N+]2(C)CCC(=O)OCCCCCOC(=O)CC[N+]2(C)CCc3cc(OC)c(OC)cc3C2Cc2ccc(OC)c(OC)c2)cc1OC (stereo not given)
A: 29.9

Q: Dear colleague, I am looking for the recorded cell viability of the following compound: O=C(NCCCNc1nc(Nc2cccc(NC(=O)N3CCCC3)c2)ncc1I)c1cccs1
A: 84.3

Q: Return reported cell viability; argument: O=C(C1CC1)N1CC[C@@H](Cn2c(-c3ccc(-c4ccc5occc5c4)cc3)nc3cnccc32)C1
A: 123

Q: Which cell viability value belongs to CC1(C)Cc2c(sc(NC(=S)NC(=O)c3ccccc3)c2C(=O)O)CO1 ?
A: 94.5

Q: Fill in the blank: the reported cell viability of O=C([O-])[C@H](CC(=O)N1C[C@H]2CCCC[C@H]2C1)Cc1ccccc1 is ____.
A: 156

Q: Query: cell viability; subject: Cn1cc(-c2cnn3c(N)c(Br)c([C@@H]4CCCNC4)nc23)cn1
A: 15.8

Q: Query (compound): O=[S+]([O-])(O)c1ccc2cc(/N=N/c3cc([S+](=O)([O-])O)c4cccnc4c3O)ccc2c1 ; field requested: cell viability
A: 110

Q: // lookup cell viability for COc1ccc2c(OCc3nnc4ccc(-c5ccccc5)nn34)ccnc2c1
A: 104

Q: # input compound: FC1=CC=C(CN2\C=C/C=C(/C(=O)N[C@@H](COC3=CC4=C(NC(=O)N4)C=C3)C5=CC=CC=C5)C2=O)C=C1F ; wanted: its cell viability
A: 53.8
